Every entry's value here was drawn from paper PMC9795544.

- TARGET_DESC: OATP1B3 (Homo sapiens, UniProt Q9NPD5)
- Construct: expressed in transfected cells; host or cells: A431 cells
- Sequence (Q9NPD5 1-702): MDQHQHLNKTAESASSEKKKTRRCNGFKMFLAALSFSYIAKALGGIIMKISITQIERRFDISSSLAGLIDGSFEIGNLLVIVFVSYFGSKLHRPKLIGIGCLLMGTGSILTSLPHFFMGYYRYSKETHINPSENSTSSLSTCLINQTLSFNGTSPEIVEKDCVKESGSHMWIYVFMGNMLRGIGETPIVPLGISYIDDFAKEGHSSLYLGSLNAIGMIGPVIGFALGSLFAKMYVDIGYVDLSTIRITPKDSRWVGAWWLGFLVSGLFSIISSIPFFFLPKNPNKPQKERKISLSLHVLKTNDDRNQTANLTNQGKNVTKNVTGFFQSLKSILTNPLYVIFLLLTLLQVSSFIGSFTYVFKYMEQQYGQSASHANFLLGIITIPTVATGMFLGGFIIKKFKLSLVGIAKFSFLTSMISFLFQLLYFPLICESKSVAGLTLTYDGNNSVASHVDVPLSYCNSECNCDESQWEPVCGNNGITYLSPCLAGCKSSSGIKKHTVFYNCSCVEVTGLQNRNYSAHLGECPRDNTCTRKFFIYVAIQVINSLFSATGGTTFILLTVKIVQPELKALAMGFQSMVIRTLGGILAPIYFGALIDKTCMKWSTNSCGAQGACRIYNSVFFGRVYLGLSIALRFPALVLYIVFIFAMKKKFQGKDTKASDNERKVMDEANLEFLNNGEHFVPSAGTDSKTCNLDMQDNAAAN
- ASSAY_OVERVIEW: Pyranine transport inhibition in A431 cells overexpressing OATP1B3
- Type: cell-based
- ASSAY_SETUP: initial three-point screen (1, 10, 100 μM), category by concentration needed for 50% inhibition; pyranine 20 μM, 30 min, pH 5.5

[
  {
    "COMPOUND": "Cc1cccn2cc(COC(=O)c3ccc4c(c3)C(=O)N(Cc3ccco3)C4=O)nc12 [C4]",
    "IC50 (μM) OATP1B3": "no effect"
  },
  {
    "COMPOUND": "CC(=O)Nc1ccc(S(=O)(=O)Nc2nc3ccccc3nc2NCc2ccccc2)cc1 [H6]",
    "IC50 (μM) OATP1B3": "no effect"
  },
  {
    "COMPOUND": "Fc1ccccc1-c1cc(-c2ccccc2)c2c3c(sc2n1)CCCC3 [A4, Fc1ccccc1c2cc(c3ccccc3)c4c5CCCCc5sc4n2]",
    "IC50 (μM) OATP1B3": "no effect"
  }
]
